# Tested on: Acinetobacter baumannii
# method_notes: Antibacterial activity against Acinetobacter baumannii ATCC 17978 after 18 hrs by broth microdilution method
# Assay type: functional
# experimental_setup: ATCC 17978, 18 h
MIC values, listed per item
Kindly answer with a numeric value in µM, unit omitted.

Worked examples, 10 molecules total:
INSERT INTO assay_data (molecule, numeric_value) VALUES
  ('Fc1cccc2c1-c1ccccc1[I+]2', 0.56),
  ('Cc1ccc2c(c1)-c1ccccc1[I+]2', 9),
  ('COc1cccc2c1-c1ccccc1[I+]2', 35),
  ('Fc1ccc2c(c1)[I+]c1ccccc1-2', 1.1),
  ('Clc1ccc2c(c1)-c1ccccc1[I+]2', 2.2),
  ('N#Cc1ccc2c(c1)[I+]c1ccccc1-2', 4.4),
  ('Fc1ccc2c(c1)-c1ccccc1[I+]2', 2.2),
  ('COc1ccc2c(c1)-c1ccccc1[I+]2', 18),
  ('COc1ccc2c(c1)[I+]c1ccccc1-2', 18),
  ('c1ccc2c(c1)[I+]c1c-2ccc2ccccc12', 1.1);

## Input # query: MIC of entry N#Cc1ccc2c(c1)-c1ccccc1[I+]2
## Output 4.4

## Input And Clc1ccc2c(c1)[I+]c1ccccc1-2 ?
## Output 0.54

## Input And Cc1ccc2c(c1)[I+]c1ccccc1-2.O=S(=O)([O-])C(F)(F)F ?
## Output 4.5

## Input And c1ccc2c(c1)[I+]c1ccccc1-2 ?
## Output 2.3

## Input And Cc1cccc2c1-c1ccccc1[I+]2 ?
## Output 1.1

Value source: ChEMBL document CHEMBL4145448
